Tested on: AeaABC-TMOF receptor
Experiment: Transport of AeaTMOF-FITC into E. coli cells expressing AeaABC-TMOF receptor in the presence of inhibitors
Type: cell-based, Aedes aegypti
Conditions: Valinomycin 7 μM, DNP 27 μM, NaAzide 100 μM, NaArsenate 20 mM; AeaTMOF-FITC 0.4 μM, 2 h, 37 °C
Reported Property: effect on transport of AeaTMOF-FITC into E. coli cells (in words)

[
  {
    "Molecule": "O=[As]([O-])([O-])O.[Na+].[Na+] [NaArsenate, sodium arsenate]",
    "Target Desc": "AeaABC-TMOF receptor",
    "Result": "inhibited"
  },
  {
    "Molecule": "[N-]=[N+]=[N-].[Na+] [NaAzide, sodium azide]",
    "Target Desc": "AeaABC-TMOF receptor",
    "Result": "inhibited"
  }
]
